Tested on: liver HepG-2 cancer cell line
Experiment: In vitro cytotoxic activity (MTT assay), HepG-2
Conditions: 12.5 µM
Binarize percentage cytotoxicity on HepG-2 at 60%; below is Condition met, at or above is Condition not met.

O=S(=O)(NC1CCCCC1)c1ccc(-n2cc(CO[C@@H]3OC[C@@H](O)[C@H](O)[C@H]3O)nn2)cc1 [Compound 13] ... Condition met
CC(=O)OC[C@H]1O[C@@H](OCc2cn(-c3ccc(S(=O)(=O)NC4CCCCC4)cc3)nn2)[C@H](OC(C)=O)[C@@H](OC(C)=O)[C@H]1OC(C)=O [Compound 7] ... Condition not met

API: query returns whether the compound falls strictly under 60% in percentage cytotoxicity on HepG-2. Query: CCCCNS(=O)(=O)c1ccc(-n2cc(CO[C@@H]3OC[C@@H](OC(C)=O)[C@H](OC(C)=O)[C@H]3OC(C)=O)nn2)cc1 [Compound 8] Condition met

* * *

System: liver HepG-2 cancer cell line
Test: In vitro cytotoxic activity (MTT assay), HepG-2
Conditions: 25 µM
MEASUREMENT_TYPE: percentage cytotoxicity on HepG-2
Remember to quote the unit after the number.

Solved cases below.
O=S(=O)(NC1CCCCC1)c1ccc(-n2cc(CO[C@@H]3O[C@H](CO)[C@H](O)[C@H](O)[C@H]3O)nn2)cc1 ... 57.70±0.87%
[N-]=[N+]=Nc1ccc(S(=O)(=O)NC2CCCCC2)cc1 [Compound 4, 4-Azido-N-cyclohexylbenzenesulfonamide] ... 86.23±0.98%
CCCCNS(=O)(=O)c1ccc(N=[N+]=[N-])cc1 [Compound 3, 4-Azido-N-butylbenzenesulfonamide] ... 19.08±1.88%
CC(=O)O[C@@H]1[C@@H](OC(C)=O)[C@H](OCc2cn(-c3ccc(S(=O)(=O)NC4CCCCC4)cc3)nn2)OC[C@H]1OC(C)=O ... 63.70±2.29%

Look at each compound and report its percentage cytotoxicity on HepG-2.
1. CCCCNS(=O)(=O)c1ccc(-n2cc(CO[C@@H]3OC[C@@H](O)[C@H](O)[C@H]3O)nn2)cc1
2. CC(=O)OC[C@H]1O[C@@H](OCc2cn(-c3ccc(S(=O)(=O)NC4CCCCC4)cc3)nn2)[C@H](OC(C)=O)[C@@H](OC(C)=O)[C@H]1OC(C)=O
3. O=S(=O)(NC1CCCCC1)c1ccc(-n2cc(CO[C@@H]3OC[C@@H](O)[C@H](O)[C@H]3O)nn2)cc1
4. CCCCNS(=O)(=O)c1ccc(-n2cc(CO[C@@H]3OC[C@@H](OC(C)=O)[C@H](OC(C)=O)[C@H]3OC(C)=O)nn2)cc1

1: 44.70±1.13%; 2: 85.07±0.05%; 3: 38.80±0.40%; 4: 32.80±2.12%

* * *

Would you mind telling me the reported percentage cytotoxicity on MCF-7 of each entry?
Test system: breast MCF-7 cancer cell line
Experiment: In vitro cytotoxic activity (MTT assay), MCF-7
Type: cell-based, human
Conditions: 12.5 µM
Numbers only, in %.

Worked set:
CC(=O)OC[C@H]1O[C@@H](OCc2cn(-c3ccc(S(=O)(=O)NC4CCCCC4)cc3)nn2)[C@H](OC(C)=O)[C@@H](OC(C)=O)[C@H]1OC(C)=O ... 30.37
[N-]=[N+]=Nc1ccc(S(=O)(=O)NC2CCCCC2)cc1 [Compound 4, 4-Azido-N-cyclohexylbenzenesulfonamide] ... 35.03
CCCCNS(=O)(=O)c1ccc(-n2cc(CO[C@@H]3OC[C@@H](OC(C)=O)[C@H](OC(C)=O)[C@H]3OC(C)=O)nn2)cc1 ... 29.56

Can you give me percentage cytotoxicity on MCF-7 for all of these, one by one?
1. CC(=O)O[C@@H]1[C@@H](OC(C)=O)[C@H](OCc2cn(-c3ccc(S(=O)(=O)NC4CCCCC4)cc3)nn2)OC[C@H]1OC(C)=O
2. O=S(=O)(NC1CCCCC1)c1ccc(-n2cc(CO[C@@H]3OC[C@@H](O)[C@H](O)[C@H]3O)nn2)cc1

1. 32.60
2. 34.87
